Test system: Hs-578-T (Breast Carcinoma)
experiment: combination Emax (second highest fraction inhibited in the dose matrix, 72 h); higher = more inhibition; extreme values may be limits of the assay
# cutoff 0.7 applies to combination Emax; >= gives Fulfilled, < gives Not fulfilled

stdin: Would you say C[C@@H](Nc1cc(F)cc(F)c1)c1cc(C(=O)N(C)C)cc2c(=O)cc(N3CCOCC3)oc12 [AZD8186] + CC(=O)c1c(C)c2cnc(Nc3ccc(N4CCNCC4)cn3)nc2n(C2CCCC2)c1=O [Palbociclib] (first compound max 10 µM, 7x7, partner max 10 µM) shows combination Emax at minimum 0.7?
stdout: Not fulfilled

stdin: Would you say COc1cccc(OCCCN)c1-c1cc(Nc2cnc(C#N)cn2)n[nH]1 [Prexasertib] + CCc1c2c(nc3ccc(O)cc13)-c1cc3c(c(=O)n1C2)COC(=O)[C@]3(O)CC [SN-38] (first compound max 1 µM, 7x7, partner max 0.3 µM) shows combination Emax at minimum 0.7?
stdout: Fulfilled

stdin: Would you say N#Cc1cnc(Nc2cc(NC[C@H]3CNCCO3)c(C(F)(F)F)cn2)cn1 [SRA737] + C=CCn1c(=O)c2cnc(Nc3ccc(N4CCN(C)CC4)cc3)nc2n1-c1cccc(C(C)(C)O)n1 [AZD1775] (first compound max 10 µM, partner max 1 µM) shows combination Emax at minimum 0.7?
stdout: Fulfilled

stdin: Would you say CC(=O)c1c(C)c2cnc(Nc3ccc(N4CCNCC4)cn3)nc2n(C2CCCC2)c1=O [Palbociclib] + Cn1cnc2c(F)c(Nc3ccc(Br)cc3Cl)c(C(=O)NOCCO)cc21 [Selumetinib] (first compound max 10 µM, 7x7, partner max 10 µM) shows combination Emax at minimum 0.7?
stdout: Not fulfilled

stdin: Would you say C=CCn1c(=O)c2cnc(Nc3ccc(N4CCN(C)CC4)cc3)nc2n1-c1cccc(C(C)(C)O)n1 [AZD1775] + C1CN(CCC1(C(=O)N[C@@H](CCO)C2=CC=C(C=C2)Cl)N)C3=NC=NC4=C3C=CN4 [Capivasertib] (first compound max 3 µM, partner max 3 µM) shows combination Emax at minimum 0.7?
stdout: Fulfilled

stdin: Would you say O=C(c1cc(Cc2n[nH]c(=O)c3ccccc23)ccc1F)N1CCN(C(=O)C2CC2)CC1 [Olaparib] + CN(CC[C@H](CSC1=CC=CC=C1)NC2=C(C=C(C=C2)S(=O)(=O)NC(=O)C3=CC=C(C=C3)N4CCC(CC4)[C@H](C5=CC=CC=C5C6=CC=C(C=C6)Cl)O)S(=O)(=O)C(F)(F)F)CCO [AZD4320] (first compound max 10 µM, 7x7, partner max 1 µM) shows combination Emax at minimum 0.7?
stdout: Not fulfilled

###

Tested on: TCCSUP (Bladder Carcinoma);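 further: after 72 h of two-drug dosing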
experiment: Bliss excess, mean over the matrix (fraction); higher = more synergy
Class (by Bliss excess) -- low-valued (below -0.03), mid-valued (-0.03 to below 0.003), high-valued (0.003 or more)

stdin: Which bin should I file Cc1c2c(nn1C)CSCc1cc(n(C)n1)CSc1cc(c3ccccc3c1)OCCCc1c(C(=O)O)n(C)c3c-2c(Cl)ccc13 [AZD5991] + C[C@@H]1COCCN1C2=NC(=NC(=C2)C3(CC3)[S@](=N)(=O)C)C4=C5C=CNC5=NC=C4 [AZD6738] (first compound max 1 µM, 7x7, partner max 10 µM) under?
stdout: high-valued

stdin: Which bin should I file Cn1cnc2c(F)c(Nc3ccc(Br)cc3Cl)c(C(=O)NOCCO)cc21 [Selumetinib] + CC(C)n1c(=O)n(C)c2cnc3cc(F)c(-c4ccc(OCCCN5CCCCC5)nc4)cc3c21 [AZD1390] (first compound max 10 µM, 7x7, partner max 0.3 µM) under?
stdout: low-valued

stdin: Which bin should I file Cc1nc(Nc2ncc(C(=O)Nc3c(C)cccc3Cl)s2)cc(N2CCN(CCO)CC2)n1 [Dasatinib] + CC(=O)Nc1cccc(-n2c(=O)n(C3CC3)c(=O)c3c(Nc4ccc(I)cc4F)n(C)c(=O)c(C)c32)c1 [Trametinib] (first compound max 2 µM, 7x7, partner max 1 µM) under?
stdout: low-valued

stdin: Which bin should I file CN(CCO)CC[C@H](CSc1ccccc1)Nc1ccc(S(=O)(=O)NC(=O)c2ccc(N3CCC([C@@H](O)c4ccccc4-c4ccc(Cl)cc4)CC3)cc2)cc1S(=O)(=O)C(F)(F)F [AZD4320] + C[C@@H](Nc1cc(F)cc(F)c1)c1cc(C(=O)N(C)C)cc2c(=O)cc(N3CCOCC3)oc12 [AZD8186] (first compound max 1 µM, 7x7, partner max 3 µM) under?
stdout: low-valued

stdin: Which bin should I file CN(CCO)CC[C@H](CSc1ccccc1)Nc1ccc(S(=O)(=O)NC(=O)c2ccc(N3CCC([C@@H](O)c4ccccc4-c4ccc(Cl)cc4)CC3)cc2)cc1S(=O)(=O)C(F)(F)F [AZD4320] + C=CCn1c(=O)c2cnc(Nc3ccc(N4CCN(C)CC4)cc3)nc2n1-c1cccc(C(C)(C)O)n1 [AZD1775] (first compound max 1 µM, partner max 1 µM) under?
stdout: high-valued

stdin: Which bin should I file COc1cc2ncnc(Nc3ccc(F)c(Cl)c3)c2cc1OCCCN1CCOCC1 [Gefitinib] + CC(C)n1c(=O)n(C)c2cnc3cc(F)c(-c4ccc(OCCCN5CCCCC5)nc4)cc3c21 [AZD1390] (first compound max 10 µM, 7x7, partner max 0.3 µM) under?
stdout: low-valued

stdin: Which bin should I file Cc1c2c(nn1C)CSCc1cc(n(C)n1)CSc1cc(c3ccccc3c1)OCCCc1c(C(=O)O)n(C)c3c-2c(Cl)ccc13 [AZD5991] + Cn1cnc2c(F)c(Nc3ccc(Br)cc3Cl)c(C(=O)NOCCO)cc21 [Selumetinib] (first compound max 1 µM, 7x7, partner max 3 µM) under?
stdout: mid-valued

stdin: Which bin should I file Cc1c2c(nn1C)CSCc1cc(n(C)n1)CSc1cc(c3ccccc3c1)OCCCc1c(C(=O)O)n(C)c3c-2c(Cl)ccc13 [AZD5991] + C1CN(CCC1(C(=O)N[C@@H](CCO)C2=CC=C(C=C2)Cl)N)C3=NC=NC4=C3C=CN4 [Capivasertib] (first compound max 1 µM, 7x7, partner max 3 µM) under?
stdout: high-valued

stdin: Which bin should I file Cc1cc2ncnn2cc1Nc1ncc2c(n1)n(C1CCOCC1)c(=O)n2C [AZD7648] + CN(C)CCCOc1ccc(-c2ccc3ncc4c(c3c2)n(C2CCOCC2)c(=O)n4C)cn1 [AZD0156] (first compound max 10 µM, 7x7, partner max 1 µM) under?
stdout: mid-valued

stdin: Which bin should I file NC1(C(=O)N[C@@H](CCO)c2ccc(Cl)cc2)CCN(c2ncnc3[nH]ccc23)CC1 [Capivasertib] + C[C@@H]1COCCN1C2=NC(=NC(=C2)C3(CC3)[S@](=N)(=O)C)C4=C5C=CNC5=NC=C4 [AZD6738] (first compound max 10 µM, 7x7, partner max 10 µM) under?
stdout: low-valued

stdin: Which bin should I file COc1nnc2ccc(N3CCC(c4ccc(OCCN5CCN(C)C(=O)[C@H]5C)cc4)CC3)nn12 [AZD5153] + CN(CC[C@H](CSC1=CC=CC=C1)NC2=C(C=C(C=C2)S(=O)(=O)NC(=O)C3=CC=C(C=C3)N4CCC(CC4)[C@H](C5=CC=CC=C5C6=CC=C(C=C6)Cl)O)S(=O)(=O)C(F)(F)F)CCO [AZD4320] (first compound max 1 µM, 7x7, partner max 1 µM) under?
stdout: high-valued

###

System: MFE-296 (Endometrial Carcinoma)
experiment: combination Emax (second highest fraction inhibited in the dose matrix, 72 h); higher = more inhibition; extreme values may be limits of the assay
measured.attribute: combination Emax
No unit in the answer, please; the number alone is enough.

stdin: Name the recorded combination Emax of the compound listed here: CCN(CCO)CCCOc1ccc2c(Nc3cc(CC(=O)Nc4cccc(F)c4)[nH]n3)ncnc2c1 [AZD2811] + C[C@@H]1COCCN1C2=NC(=NC(=C2)C3(CC3)[S@](=N)(=O)C)C4=C5C=CNC5=NC=C4 [AZD6738] (first compound max 1 µM, 7x7, partner max 10 µM)
stdout: 0.405

stdin: Name the recorded combination Emax of the compound listed here: CC(=O)c1c(C)c2cnc(Nc3ccc(N4CCNCC4)cn3)nc2n(C2CCCC2)c1=O [Palbociclib] + CN(CC[C@H](CSC1=CC=CC=C1)NC2=C(C=C(C=C2)S(=O)(=O)NC(=O)C3=CC=C(C=C3)N4CCC(CC4)[C@H](C5=CC=CC=C5C6=CC=C(C=C6)Cl)O)S(=O)(=O)C(F)(F)F)CCO [AZD4320] (first compound max 10 µM, 7x7, partner max 1 µM)
stdout: 0.293

stdin: Name the recorded combination Emax of the compound listed here: Cc1c2c(nn1C)CSCc1cc(n(C)n1)CSc1cc(c3ccccc3c1)OCCCc1c(C(=O)O)n(C)c3c-2c(Cl)ccc13 [AZD5991] + C[C@@H](Nc1cc(F)cc(F)c1)c1cc(C(=O)N(C)C)cc2c(=O)cc(N3CCOCC3)oc12 [AZD8186] (first compound max 1 µM, 7x7, partner max 3 µM)
stdout: 0.265

stdin: Name the recorded combination Emax of the compound listed here: NC1(C(=O)N[C@@H](CCO)c2ccc(Cl)cc2)CCN(c2ncnc3[nH]ccc23)CC1 [Capivasertib] + CC(C)n1c(=O)n(C)c2cnc3cc(F)c(-c4ccc(OCCCN5CCCCC5)nc4)cc3c21 [AZD1390] (first compound max 10 µM, 7x7, partner max 0.3 µM)
stdout: 0.488

stdin: Name the recorded combination Emax of the compound listed here: CC1(C)CCC(CN2CCN(c3ccc(C(=O)NS(=O)(=O)c4ccc(NCC5CCOCC5)c([N+](=O)[O-])c4)c(Oc4cnc5[nH]ccc5c4)c3)CC2)=C(c2ccc(Cl)cc2)C1 [Venetoclax] + CN(C)CCCOc1ccc(-c2ccc3ncc4c(c3c2)n(C2CCOCC2)c(=O)n4C)cn1 [AZD0156] (first compound max 1 µM, 7x7, partner max 1 µM)
stdout: 0.144

stdin: Name the recorded combination Emax of the compound listed here: NC1(C(=O)N[C@@H](CCO)c2ccc(Cl)cc2)CCN(c2ncnc3[nH]ccc23)CC1 [Capivasertib] + COc1nnc2ccc(N3CCC(c4ccc(OCCN5CCN(C)C(=O)[C@H]5C)cc4)CC3)nn12 [AZD5153] (first compound max 10 µM, 7x7, partner max 1 µM)
stdout: 0.694

stdin: Name the recorded combination Emax of the compound listed here: COc1nnc2ccc(N3CCC(c4ccc(OCCN5CCN(C)C(=O)[C@H]5C)cc4)CC3)nn12 [AZD5153] + CN(CC[C@H](CSC1=CC=CC=C1)NC2=C(C=C(C=C2)S(=O)(=O)NC(=O)C3=CC=C(C=C3)N4CCC(CC4)[C@H](C5=CC=CC=C5C6=CC=C(C=C6)Cl)O)S(=O)(=O)C(F)(F)F)CCO [AZD4320] (first compound max 1 µM, 7x7, partner max 1 µM)
stdout: 0.31

stdin: Name the recorded combination Emax of the compound listed here: CC1(C)CCC(CN2CCN(c3ccc(C(=O)NS(=O)(=O)c4ccc(NCC5CCOCC5)c([N+](=O)[O-])c4)c(Oc4cnc5[nH]ccc5c4)c3)CC2)=C(c2ccc(Cl)cc2)C1 [Venetoclax] + Cc1cc2ncnn2cc1Nc1ncc2c(n1)n(C1CCOCC1)c(=O)n2C [AZD7648] (first compound max 1 µM, 7x7, partner max 10 µM)
stdout: 0.147

stdin: Name the recorded combination Emax of the compound listed here: Cc1c2c(nn1C)CSCc1cc(n(C)n1)CSc1cc(c3ccccc3c1)OCCCc1c(C(=O)O)n(C)c3c-2c(Cl)ccc13 [AZD5991] + C1CN(CCC1(C(=O)N[C@@H](CCO)C2=CC=C(C=C2)Cl)N)C3=NC=NC4=C3C=CN4 [Capivasertib] (first compound max 1 µM, 7x7, partner max 3 µM)
stdout: 0.825

stdin: Name the recorded combination Emax of the compound listed here: CN(CCO)CC[C@H](CSc1ccccc1)Nc1ccc(S(=O)(=O)NC(=O)c2ccc(N3CCC([C@@H](O)c4ccccc4-c4ccc(Cl)cc4)CC3)cc2)cc1S(=O)(=O)C(F)(F)F [AZD4320] + C[C@@H]1COCCN1C2=NC(=NC(=C2)C3(CC3)[S@](=N)(=O)C)C4=C5C=CNC5=NC=C4 [AZD6738] (first compound max 1 µM, 7x7, partner max 10 µM)
stdout: 0.559
